# Procedure Details: yeast display, Sf9 membrane polyspecificity reagent, FACS + sequencing; frameworks hold sequencing errors
Observed Property: polyreactivity (PSR sort gate)

Chain	Value Reported
QVQLVESGGGLVQAGGILRLSCAASGRIFPKYAMGWYRQAPGKERELVAAIRWSGGNTYYADSVKGRFTISRDNAKNTVYLQMNSLKPEDTAVYYCAATPYVSKYYYFGHDYWGQGTQVTVSS	high polyreactivity
QVQLVESGGGLVQAGGSLRLSCAASGRTLPAYAMGWYRQAPGKERELVAAISWGGGSTYYADSVKGRFTISRDNAKNTVYLQMNSLKPEDTAVYYCAVAGYWFAVAEYDYWGQGTQVTVSS	low polyreactivity
QVQLVESGGGLVQAGGSLRLSCAGSGIIFRGYDMGWYRQAPGKEMELVAAITWRGGSTYYADSVKGRFTISRDNAKNTVYLQMNSLKPEDTAVYYCAAVRKHSWFRHMDYWGQGTLVTVSS	high polyreactivity
QVQLVESGGGLVQAGGSLRLSCAASGFTFDYNAMGWYRQAPGKERELVASIDQSGGSTYYADSVKGRFTISRDNAKNTVYLQMNSLKPEDTAVYYCAAEGYYTSTYDLYDYYYWGQGTQVTVSS	low polyreactivity
QVQLVESGGGLVQAGGSLRLSCAASGSTFFHNAMGWYRQAPGKEREWVAAINWNGGSTYYADSVKGRFTISRDNAKNTVYLQMNSLKPEDTAVYYCAADIYTYLGAYYIGYYWGQGTQVTVSS	low polyreactivity
QVQLVESGGGLVQEGGSLRLSCAASGIIFRWYAMGWYRQAPGKERELVAAITSDGNTYYADSVKGRFTISRDNAKNTVYLQMNSLKPVDTAVYYCAARLSYYSRMNYWGQGTQVTVSS	high polyreactivity
QVQLVETWGGLVQAGGSLRLSCAASGRNFRTNAMGWYRQAPGKERELVAAITSDGTYYADSVKGRFTISRDNAKNNVYLQMNSVKPEDTAVYYCNVDDRETRDDYWGQGTQVTVSS	low polyreactivity
QVQLVESGGGLVQAGGSLRLSCAASGIIFYRNTMGWYRQAPGKERELVAAITSGGTTYADSVKGRFTISRDNAKNTVYLQMNSLKPEDTAVYYCATDYWYRGFEYEYWGQGTQVTVSS	high polyreactivity

// switching to the query sequence
Need polyreactivity (PSR sort gate) of `QVQLVESGGVLVQAGGSLRLSCAASGIIFGRDTMGWYRQAPGKERELVAAITSSGITYYADSVKGRFTFSRDNAKNCVYLQMNSLKPEDTAVYYCIADYSIPGYYWPYDYWGQCTQVTVSS` , thanks.
low polyreactivity
